TESTED ON: Rat liver ER α-glucosidase I (Rattus norvegicus, UniProt O88941)
Construct: Rat liver ER, I
Sequence (O88941 whole entry): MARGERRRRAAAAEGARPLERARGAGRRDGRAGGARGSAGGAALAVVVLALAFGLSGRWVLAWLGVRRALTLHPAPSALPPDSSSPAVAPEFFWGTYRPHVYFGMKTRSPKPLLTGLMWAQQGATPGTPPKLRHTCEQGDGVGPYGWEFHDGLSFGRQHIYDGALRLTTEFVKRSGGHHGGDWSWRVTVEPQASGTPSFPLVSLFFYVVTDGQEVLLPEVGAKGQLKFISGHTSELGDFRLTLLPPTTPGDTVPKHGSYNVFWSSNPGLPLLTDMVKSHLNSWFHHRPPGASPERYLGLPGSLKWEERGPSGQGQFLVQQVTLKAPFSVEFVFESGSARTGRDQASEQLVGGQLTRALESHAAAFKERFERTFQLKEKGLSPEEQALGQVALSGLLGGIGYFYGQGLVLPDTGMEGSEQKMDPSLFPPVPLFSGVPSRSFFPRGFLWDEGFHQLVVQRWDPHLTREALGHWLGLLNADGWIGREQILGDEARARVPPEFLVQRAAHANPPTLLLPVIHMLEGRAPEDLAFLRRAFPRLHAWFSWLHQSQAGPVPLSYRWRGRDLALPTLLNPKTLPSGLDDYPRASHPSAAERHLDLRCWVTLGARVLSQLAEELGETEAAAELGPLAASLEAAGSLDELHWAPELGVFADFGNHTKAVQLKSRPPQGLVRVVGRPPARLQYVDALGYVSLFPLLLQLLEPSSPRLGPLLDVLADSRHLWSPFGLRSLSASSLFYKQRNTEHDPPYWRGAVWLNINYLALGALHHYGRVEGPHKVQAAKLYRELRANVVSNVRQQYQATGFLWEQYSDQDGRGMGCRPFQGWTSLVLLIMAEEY
EXPERIMENT DESCRIPTION: Inhibition of isolated rat liver ER α-glucosidase I (anthranilic acid-labelled Glc3Man7GlcNAc2 substrate, HPLC)
RUN CONDITIONS: isolated enzyme in vitro; mean of three measurements
pIC50: −log10 of the molar value.
VALUE TYPE: pIC50

>  <COMPOUND>
OC[C@H]1NC[C@H](O)[C@@H](O)[C@@H]1O [Compound 1, D-1-deoxynojirimycin, reference compound]

>  <VALUE TYPE>
pIC50

>  <BOUND OPERATOR>
=

>  <REPORTED VALUE>
5.66

$$$$
>  <COMPOUND>
CCCCN1CC(O)C(O)C(O)C1CO [Compound 2, N-butyl-D-1-deoxynojirimycin, reference compound]

>  <VALUE TYPE>
pIC50

>  <BOUND OPERATOR>
=

>  <REPORTED VALUE>
6.17

$$$$
>  <COMPOUND>
Cc1c(C)c2c(c(C)c1OCCCCCN1CC(O)C(O)C(O)C1CO)CCC(C)(CCCC(C)CCCC(C)CCCC(C)C)O2 (stereo not drawn) [Compound 4, 5′-tocopheroxypentyl-DNJ]

>  <VALUE TYPE>
pIC50

>  <BOUND OPERATOR>
<

>  <REPORTED VALUE>
4.30

$$$$
